organism: Rattus norvegicus; experiment: Open TG-GATES - Regimen: Single; format: toxicity, organism-based, Sprague-Dawley; set-up: regimen Single, gender Male, age 6 weeks; details: in vivo, po, 100 mg/kg, 24 h, tissue Plasma, route gavage, dose level Low
What LDH was measured for each of the following?
Units required after the number.

Given item `Clc1ccccc1CN1CCc2sccc2C1` , the value recorded as its LDH is 141.4 IU/L

Looking up CCc1cc(C(N)=S)ccn1 [ETHIONAMIDE] , I found its LDH recorded as 90.4 IU/L

Field LDH (entry `C[C@H](CS)C(=O)N1CCC[C@H]1C(=O)O` ) reads 113 IU/L

Record `O=C(O)c1cc(/N=N/c2ccc(S(=O)(=O)Nc3ccccn3)cc2)ccc1O` . Reported LDH: 213 IU/L

====

species on record: Rattus norvegicus; test: Open TG-GATES - Regimen: Single; format: toxicity, organism-based, Sprague-Dawley; set-up: regimen Single, gender Male, age 6 weeks; conditions: in vivo, po, 1000 mg/kg, 9 h, tissue Blood, route gavage, dose level High
Exam item: assign true to entries whose Neu is below 20% and false to entries at or above 20%. Note that a value of exactly 20% receives false.

Please indicate whether the reported Neu of `O=C(O)c1cn(C2CC2)c2cc(N3CCNCC3)c(F)cc2c1=O` is strictly below 20%.
true

Field: below-cutoff. Rule: recorded Neu strictly less than 20%. Subject: `C[C@H](CS)C(=O)N1CCC[C@H]1C(=O)O`
true

Item `Clc1ccccc1CN1CCc2sccc2C1` : Neu beneath 20%, strictly?
true

Given the entry CCc1cc(C(N)=S)ccn1 [ETHIONAMIDE] , would its reported Neu be below 20%?
true

Hi there! Is Neu for `O=C(O)c1cc(/N=N/c2ccc(S(=O)(=O)Nc3ccccn3)cc2)ccc1O` below 20%, do you know?
false

====

Give measured TP for each item. Keep answers brief.
species: Rattus norvegicus; assay: Open TG-GATES - Regimen: Daily Repeat; assay type: toxicity, organism-based, Sprague-Dawley; design: regimen Daily Repeat, gender Male, age 6 weeks; details: in vivo, po, 0 mg/kg, […], tissue Plasma, route gavage, dose level Control, time 28 day

Measured TP of `O=C(O)c1cn(C2CC2)c2cc(N3CCNCC3)c(F)cc2c1=O` : 6.6 g/dL

Input `Cn1c(=O)c2[nH]cnc2n(C)c1=O.O` . Output TP: 6.1 g/dL

// TP lookup, compound = CSc1ccc2c(c1)N(CCC1CCCCN1C)c1ccccc1S2 (centres undefined) , result: 6.5 g/dL

The compound identified as `CCCC(CCC)C(=O)O` registered its TP at 6.1 g/dL

The reported TP of the compound `COc1ccc2c(c1)c(CC(=O)O)c(C)n2C(=O)c1ccc(Cl)cc1` was 6.6 g/dL

The compound listed as `CN(C)CCC=C1c2ccccc2CCc2ccccc21` shows TP equal to 6.2 g/dL

# TP of `C[C@H](CS)C(=O)N1CCC[C@H]1C(=O)O` = 6.1 g/dL

Measured TP, `O=C(O)c1cc(/N=N/c2ccc(S(=O)(=O)Nc3ccccn3)cc2)ccc1O` : 6.2 g/dL

For record `CO[C@H]1/C=C/O[C@@]2(C)Oc3c(C)c(O)c4c(O)c(c(/C=N/N5CCN(C)CC5)c(O)c4c3C2=O)NC(=O)/C(C)=C\C=C\[C@H](C)[C@H](O)[C@@H](C)[C@@H](O)[C@@H](C)[C@H](OC(C)=O)[C@@H]1C` the listed TP is 6.3 g/dL
